Parameter CRE: see the listing below.
- Species on record: Rattus norvegicus
- METHOD: Open TG-GATES - Regimen: Daily Repeat
- Type: toxicity, organism-based, Sprague-Dawley
- Set-up: regimen Daily Repeat, gender Male, age 6 weeks
- TEST_CONDITIONS: in vivo, po, 0 mg/kg, […], tissue Plasma, route gavage, dose level Control, time 7 day
Answer in mg/dL, number only, no unit symbol.

| COMPOUND | ATTRIBUTE_MEASURED | READOUT_VALUE |
| --- | --- | --- |
| Brc1ccccc1 [BROMOBENZENE] | CRE | 0.2 |
| CCOc1ccc(NC(C)=O)cc1 [PHENACETIN] | CRE | 0.2 |
| Cc1nnc2n1-c1ccc(Cl)cc1C(c1ccccc1Cl)=NC2 [TRIAZOLAM] | CRE | 0.2 |

Ask: GET /values?readout=CRE&item= CN(C)CCC(c1ccc(Cl)cc1)c1ccccn1 (stereo not drawn) [CHLORPHENIRAMINE]
Result: 0.2

Ask: So what does the record say about CRE for CC(C)NNC(=O)c1ccncc1 [IPRONIAZID] ?
Result: 0.2

Ask: Report CRE for COC(=O)C1=C(C)NC(C)=C(C(=O)OC)C1c1ccccc1[N+](=O)[O-] [NIFEDIPINE] please.
Result: 0.2

Ask: Look up CRE for this compound: NC1=NC(=O)C(c2ccccc2)O1 (stereo not drawn) [PEMOLINE]
Result: 0.2

Ask: Reported CRE for CN1C(=O)CCS(=O)(=O)C1c1ccc(Cl)cc1 (stereo not drawn) [CHLORMEZANONE] : what is it?
Result: 0.2

Ask: Give its CRE value. Item: Nc1c2c(nc3ccccc13)CCCC2 [TACRINE]
Result: 0.2

Ask: Value lookup for CRE; key = CNC(=C[N+](=O)[O-])NCCSCc1ccc(CN(C)C)o1 [RANITIDINE]
Result: 0.4

Ask: # get_value(readout='CRE', item= CCCc1cc(=O)[nH]c(=S)[nH]1 [PROPYLTHIOURACIL] )
Result: 0.5

Ask: Need CRE, item O=C(OC[C@H]1O[C@@H](OC(=O)c2cc(O)c(O)c(OC(=O)c3cc(O)c(O)c(O)c3)c2)[C@H](OC(=O)c2cc(O)c(O)c(OC(=O)c3cc(O)c(O)c(O)c3)c2)[C@@H](OC(=O)c2cc(O)c(O)c(OC(=O)c3cc(O)c(O)c(O)c3)c2)[C@@H]1OC(=O)c1cc(O)c(O)c(OC(=O)c2cc(O)c(O)c(O)c2)c1)c1cc(O)c(O)c(OC(=O)c2cc(O)c(O)c(O)c2)c1 [TANNIC ACID]
Result: 0.4

Ask: Given the compound CN/C(=N/CCSCc1nc[nH]c1C)NC#N [CIMETIDINE] , what is its reported CRE?
Result: 0.4

---

Quick list: KIDNEY_R per entry.
- Species: Rattus norvegicus
- METHOD: Open TG-GATES - Regimen: Single
- Type: toxicity, organism-based, Sprague-Dawley
- Parameters: regimen Single, gender Male, age 6 weeks
- TEST_CONDITIONS: in vivo, po, 0 mg/kg, 24 h, tissue Kidney, route gavage, dose level Control
Hey, just the number and the unit after it is fine.

| COMPOUND | ATTRIBUTE_MEASURED | READOUT_VALUE |
| --- | --- | --- |
| CC(C)NNC(=O)c1ccncc1 [IPRONIAZID] | KIDNEY_R | 1 g |
| Brc1ccccc1 [BROMOBENZENE] | KIDNEY_R | 0.8 g |
| CNC(=C[N+](=O)[O-])NCCSCc1ccc(CN(C)C)o1 [RANITIDINE] | KIDNEY_R | 1 g |

Ask: Given the entry CN1C(=O)CCS(=O)(=O)C1c1ccc(Cl)cc1 (centres undefined) [CHLORMEZANONE] , report its measured KIDNEY_R.
Result: 1 g

Ask: Need KIDNEY_R of CN/C(=N/CCSCc1nc[nH]c1C)NC#N [CIMETIDINE] , thanks.
Result: 1 g

Ask: Field request: KIDNEY_R | item: NC1=NC(=O)C(c2ccccc2)O1 (centres undefined) [PEMOLINE]
Result: 0.9 g

---

- Species on record: Rattus norvegicus
- METHOD: Open TG-GATES - Regimen: Daily Repeat
- Assay type: toxicity, organism-based, Sprague-Dawley
- Design: regimen Daily Repeat, gender Male, age 6 weeks
- TEST_CONDITIONS: in vivo, po, 100 mg/kg, 72 h, tissue Plasma, route gavage, dose level Low, time 3 day
Measured TG of individual entries
Number first, unit second.

Ask: Need TG of COC(=O)C1=C(C)NC(C)=C(C(=O)OC)C1c1ccccc1[N+](=O)[O-] , thanks.
Result: 98.8 mg/dL

Ask: Consider the compound shown here: Cc1nnc2n1-c1ccc(Cl)cc1C(c1ccccc1Cl)=NC2 What is its recorded TG?
Result: 76 mg/dL

Ask: Please report the recorded TG for CNC(=C[N+](=O)[O-])NCCSCc1ccc(CN(C)C)o1 .
Result: 80 mg/dL

Ask: Give the measured TG of O=C(OC[C@H]1O[C@@H](OC(=O)c2cc(O)c(O)c(OC(=O)c3cc(O)c(O)c(O)c3)c2)[C@H](OC(=O)c2cc(O)c(O)c(OC(=O)c3cc(O)c(O)c(O)c3)c2)[C@@H](OC(=O)c2cc(O)c(O)c(OC(=O)c3cc(O)c(O)c(O)c3)c2)[C@@H]1OC(=O)c1cc(O)c(O)c(OC(=O)c2cc(O)c(O)c(O)c2)c1)c1cc(O)c(O)c(OC(=O)c2cc(O)c(O)c(O)c2)c1 .
Result: 100.8 mg/dL

Ask: What value of TG has been reported for the following compound? CN/C(=N/CCSCc1nc[nH]c1C)NC#N
Result: 109.8 mg/dL

Ask: Param item = CCOc1ccc(NC(C)=O)cc1 ; retrieve measured TG.
Result: 110.6 mg/dL

---

Measured Mono values are reported for all entries that follow.
- Organism: Rattus norvegicus
- METHOD: Open TG-GATES - Regimen: Single
- Format: toxicity, organism-based, Sprague-Dawley
- Parameters: regimen Single, gender Male, age 6 weeks
- TEST_CONDITIONS: in vivo, po, 100 mg/kg, 9 h, tissue Blood, route gavage, dose level Low
# number then unit; no other words

Known results for compounds:
| COMPOUND_STRING | ATTRIBUTE_MEASURED | READOUT_VALUE |
| --- | --- | --- |
| CNC(=C[N+](=O)[O-])NCCSCc1ccc(CN(C)C)o1 | Mono | 2.6% |
| CN/C(=N/CCSCc1nc[nH]c1C)NC#N | Mono | 2.4% |
| COC(=O)C1=C(C)NC(C)=C(C(=O)OC)C1c1ccccc1[N+](=O)[O-] | Mono | 2.8% |
| Cc1nnc2n1-c1ccc(Cl)cc1C(c1ccccc1Cl)=NC2 | Mono | 2.2% |

Let us move to another entry and its Mono.
Ask: Name the reported Mono value associated with the compound O=C(OC[C@H]1O[C@@H](OC(=O)c2cc(O)c(O)c(OC(=O)c3cc(O)c(O)c(O)c3)c2)[C@H](OC(=O)c2cc(O)c(O)c(OC(=O)c3cc(O)c(O)c(O)c3)c2)[C@@H](OC(=O)c2cc(O)c(O)c(OC(=O)c3cc(O)c(O)c(O)c3)c2)[C@@H]1OC(=O)c1cc(O)c(O)c(OC(=O)c2cc(O)c(O)c(O)c2)c1)c1cc(O)c(O)c(OC(=O)c2cc(O)c(O)c(O)c2)c1
Result: 6.8%

---

- Species: Rattus norvegicus
- METHOD: Open TG-GATES - Regimen: Single
- Assay type: toxicity, organism-based, Sprague-Dawley
- Design: regimen Single, gender Male, age 6 weeks
- TEST_CONDITIONS: in vivo, po, 100 mg/kg, 9 h, tissue Plasma, route gavage, dose level Low
ATTRIBUTE_MEASURED: TP (g/dL)
Field: numeric (g/dL). Do not append units.

Example entries and their recorded answers appear below.
| COMPOUND_STRING | TP [g/dL] |
| --- | --- |
| O=C(OC[C@H]1O[C@@H](OC(=O)c2cc(O)c(O)c(OC(=O)c3cc(O)c(O)c(O)c3)c2)[C@H](OC(=O)c2cc(O)c(O)c(OC(=O)c3cc(O)c(O)c(O)c3)c2)[C@@H](OC(=O)c2cc(O)c(O)c(OC(=O)c3cc(O)c(O)c(O)c3)c2)[C@@H]1OC(=O)c1cc(O)c(O)c(OC(=O)c2cc(O)c(O)c(O)c2)c1)c1cc(O)c(O)c(OC(=O)c2cc(O)c(O)c(O)c2)c1 | 5.4 |
| CNC(=C[N+](=O)[O-])NCCSCc1ccc(CN(C)C)o1 | 5.3 |
| CN/C(=N/CCSCc1nc[nH]c1C)NC#N | 5.5 |
| Cc1nnc2n1-c1ccc(Cl)cc1C(c1ccccc1Cl)=NC2 | 5.2 |

# next compound below
Ask: Value lookup for TP; key = COC(=O)C1=C(C)NC(C)=C(C(=O)OC)C1c1ccccc1[N+](=O)[O-]
Result: 5.4

Origin of measurements: ChEMBL document CHEMBL3885861
